Data provenance: patent US20240002497A1

Give EC50 for every item shown.
target: T1, huNav1.7α+β1-β2-β3 (human, UniProt Q15858 1-1988; Q07699 19-218; O60939 30-215; Q9NY72 23-215); assay: binding FACS, CHO FlpIn cells
T1 construct: 5N11S variant; also called huNav1.7-beta1-beta2-beta3; huNav1.7α+Navβ1-Navβ2-Navβ3
Write the answer as a number in nM, unit excluded.

Input: Can you share its EC50? I mean this binder: F010301562 (VHH, vs 387G05: D23A, D54G) VHH: EVQLVESGGGLVQAGGSLRLSCAASGRILRIGYMRWHRQGAGKQREFVARITDGSATDYADSVKGRFTISRDNAKNTVYLQMNNLNPEDTAVYYCEALVTASVRGGSIHSGTYWGRGTLVTVSS
Output: 2.5

Input: Input F010301350 (VHH, vs 387G05: D58V) VHH: EVQLVESGGGLVQAGGSLRLSCDASGRILRIGYMRWHRQGAGKQREFVARITDDSATVYADSVKGRFTISRDNAKNTVYLQMNNLNPEDTAVYYCEALVTASVRGGSIHSGTYWGRGTLVTVSS
Output: 3.5

Input: Input F010301367 (VHH, vs 387G05: D53G) VHH: EVQLVESGGGLVQAGGSLRLSCDASGRILRIGYMRWHRQGAGKQREFVARITGDSATDYADSVKGRFTISRDNAKNTVYLQMNNLNPEDTAVYYCEALVTASVRGGSIHSGTYWGRGTLVTVSS
Output: 4.2

Input: Input F010301418 (VHH, vs 387G05: Y102W) VHH: EVQLVESGGGLVQAGGSLRLSCDASGRILRIGYMRWHRQGAGKQREFVARITDDSATDYADSVKGRFTISRDNAKNTVYLQMNNLNPEDTAVYYCEALVTASVRGGSIHSGTWWGRGTLVTVSS
Output: 4.9
